Record: compiled IC50 on hCRTH2 receptor (Homo sapiens (Human)) from multiple reports.
Sequence (Q9Y5Y4 whole entry): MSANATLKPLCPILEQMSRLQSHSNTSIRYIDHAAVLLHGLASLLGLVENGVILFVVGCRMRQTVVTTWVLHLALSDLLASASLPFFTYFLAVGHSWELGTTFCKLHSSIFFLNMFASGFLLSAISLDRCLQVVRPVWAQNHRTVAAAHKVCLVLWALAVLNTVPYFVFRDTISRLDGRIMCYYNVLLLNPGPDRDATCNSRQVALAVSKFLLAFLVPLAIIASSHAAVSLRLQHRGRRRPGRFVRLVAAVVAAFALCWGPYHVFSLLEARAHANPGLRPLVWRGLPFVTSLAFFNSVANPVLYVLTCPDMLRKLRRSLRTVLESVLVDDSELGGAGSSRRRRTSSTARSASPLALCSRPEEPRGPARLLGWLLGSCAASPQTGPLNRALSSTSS
Lab note: compare IC50 with 20 nM, writing y if less and n if equal or more.

| molecule | cat |
| --- | --- |
| CCC(=O)N(Cc1cccc(-c2c(C)noc2C)c1)c1cccc(-c2nnn[nH]2)c1 | n |
| CC(C)Oc1cc(CC(=O)O)ccc1-c1ccc(F)c2c1CN(C(=O)CC1CCOc3ccccc31)CC2 (racemic) | y |
| O=C(O)Cn1cc(C(CNS(=O)(=O)c2ccc(F)cc2)c2ccccc2)c2ccccc21 (stereo not drawn) | y |
| COc1ccc(CC(=O)O)cc1-c1ccc(F)c2c1CN(C(=O)CC1OCc3ccccc31)CC2 (racemic) | n |
| COc1ccc(CC(=O)O)cc1-c1ccc(F)c2c1CN(C(=O)OCc1ccccc1)CC2 | y |
| CCC(=O)N(Cc1ccc([S+]([O-])C(F)(F)F)cc1)c1cc(F)cc(-c2nnn[nH]2)c1 (stereo not drawn) | y |
| COc1ccc(CC(=O)O)cc1-c1ccc(Cl)c2c1CN(C(=O)[C@@H]1C[C@H]1c1ccccc1)CC2 | y |
| CCOC(=O)N1CCc2c(F)ccc(-c3cc(CC(=O)O)ccc3OC)c2C1 | n |
| CCOc1ccc(CC(=O)O)cc1-c1ccc(F)c2c1CN(C(=O)NCc1ccc(F)cc1)CC2 | y |
| CCOc1ccc(CC(=O)O)cc1-c1ccc(F)c2c1CN(C(=O)/C=C/c1ccn(C)n1)CC2 | n |

###

Note to self: these compounds have IC50 reported for hCRTH2 receptor (Homo sapiens (Human)) in various publications.
quantity: IC50

| query_smiles | target_entity | quantity | data_value |
| --- | --- | --- | --- |
| O=C(O)Cc1cc(Oc2ccc(C(F)(F)F)cc2CN2CCOC2=O)ccc1-c1ccccc1 | hCRTH2 receptor (Homo sapiens (Human)) | IC50 | < 300 nM |
| COc1ccc(CC(=O)O)cc1-c1ccc(F)c2c1CN(C(=O)CC(C)(C)C)CC2 | hCRTH2 receptor (Homo sapiens (Human)) | IC50 | 913 nM |
| COc1ccc(CC(=O)O)cc1-c1ccc(F)c2c1CN(C(=O)Cc1noc3ccccc13)CC2 | hCRTH2 receptor (Homo sapiens (Human)) | IC50 | 47.2 nM |
| COc1ccc(CC(=O)O)cc1Oc1ccc(N2CCOCC2)cc1CN1CCOC1=O | hCRTH2 receptor (Homo sapiens (Human)) | IC50 | > 1000 nM |
| CCN(Cc1ccc(OC)cc1-c1cc(CC(=O)O)ccc1OC)C(=O)OCc1ccc(Cl)cc1 | hCRTH2 receptor (Homo sapiens (Human)) | IC50 | < 300 nM |
| COc1ccc(CC(=O)O)cc1-c1ccc(F)c2c1CN(C(=O)C1Cc3ccccc3C1)CC2 | hCRTH2 receptor (Homo sapiens (Human)) | IC50 | 172 nM |
| CCN(Cc1cc(C(F)(F)F)ccc1-c1cc(Cl)cc(CC(=O)O)c1)C(=O)c1ccccc1 | hCRTH2 receptor (Homo sapiens (Human)) | IC50 | < 300 nM |
| C[C@H]1[C@@H](c2ccccc2)OC(=O)N1Cc1cc(Br)ccc1Oc1cc(CC(=O)O)ccc1Cl | hCRTH2 receptor (Homo sapiens (Human)) | IC50 | < 300 nM |

###

Assembled from different publications: IC50 for hCRTH2 receptor (Homo sapiens (Human), UniProt Q9Y5Y4).
quantity: IC50 (µM)

| molecule | quantity | relation_qualifier | data_value |
| --- | --- | --- | --- |
| C[C@@H](CC(=O)N1CCc2ncsc2C1c1cc(Cl)ccc1OCC(=O)O)c1ccccc1 (mixture of isomers) | IC50 | = | 0.355 |
| COc1ccc(CC(=O)O)cc1-c1ccc(F)c2c1CN(C(=O)CC1COc3ccccc31)CC2 (racemic) | IC50 | = | 0.0253 |
| O=C(O)COc1cc(Cl)cc(-c2ccc(F)c3c2CN(C(=O)OCc2ccccc2)CC3)c1 | IC50 | = | 0.0862 |
| CCOc1ccc(CC(=O)O)cc1Oc1ccc(Br)cc1CN1C(=O)O[C@@H](c2ccccc2)[C@H]1C | IC50 | < | 0.3 |
| CCC(=O)N(Cc1cccc(C#CCO)c1)c1cccc(-c2nnn[nH]2)c1 | IC50 | = | 1.27 |
| O=C(O)Cc1cccc(Oc2ccc(C(F)(F)F)cc2CN2C(=O)O[C@@H]3Cc4ccccc4[C@@H]32)c1 | IC50 | < | 0.3 |
